# System: NQO1
# measurementProtocol: NQO1 (quinone reductase) marker gene expression in cultured mammalian cells
# Type: cell-based
# Parameters: key: The ++ signs indicate positive response and the number represents the magnitude of response; The ++ signs indicate positive response and the number represents the magnitude of response; −−−: The dashed lines indicate no measurable response; −−−−: The dashed lines indicate no measurable response; −−−−−: The dashed lines indicate no measurable response
# protocolConditions: gene marker response, preliminary data
measurementKind: NQO1

{"compound": "O=C(C=Cc1ccccc1)OCc1ccccc1 [Benzyl Cinnamate]", "NQO1": "++"}
{"compound": "CCCOC(=O)c1cc(O)c(O)c(O)c1 [Propyl Gallate]", "NQO1": "++"}
{"compound": "COc1cc(C=O)ccc1O [Vanillin]", "NQO1": "+"}
{"compound": "CC=Cc1ccc(O)c(OC)c1 [Isoeugenol]", "NQO1": "+"}
{"compound": "O=C(O)c1ccccc1 [Benzoic Acid]", "NQO1": "−−−−"}
{"compound": "O=C1OC(=O)c2ccccc21 [Phthalic Anhydride]", "NQO1": "++"}

Let us examine a further case.
Please report the recorded NQO1 for O=C(Oc1ccccc1)c1ccccc1 [Phenyl Benzoate] .
+
